B1: CCNC (parent)
chain: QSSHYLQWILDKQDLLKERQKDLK

Variants of: B1
METHOD NOTES: protein stability index of a GFP-peptide fusion (GPS, HEK-293T) (PSI 1-6); higher = more stable;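 further: lentivirally expressed fusions sorted by FACS into six bins by GFP to DsRed ratio, PSI derived from sequencing read proportions per bin multiplied by bin number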
ASSAY SETUP: c terminus: a fixed tail appended
Catalogue of variants with associated protein stability index
EXPERIMENTAL ENDPOINT: protein stability index

> print(dat)
    change    experimental.endpoint  measured.number
 1    L10I  protein stability index             2.97
 2    K21E  protein stability index             2.99
 3     W8P  protein stability index             4.29
 4     S2C  protein stability index             2.27
 5    K24C  protein stability index             2.29
 6     Q7V  protein stability index             1.97
 7     H4N  protein stability index             3.27
 8    R19G  protein stability index             3.25
 9    D14F  protein stability index             2.22
10    D14Y  protein stability index             2.61
11    K17V  protein stability index             2.82
12     S3C  protein stability index             3.02
13    Q13I  protein stability index             2.59
14    K24Q  protein stability index             2.77
15    D11I  protein stability index             2.26
16    D22I  protein stability index             2.48
17     Y5K  protein stability index             3.43
18    K17R  protein stability index             2.33
19    L23D  protein stability index             4.22
20    D11S  protein stability index                3
21    D11Y  protein stability index             3.17
22     I9R  protein stability index             4.12
23     Y5T  protein stability index              3.7
24    K21M  protein stability index              2.9
25     S3Y  protein stability index             2.34
26    K24D  protein stability index             4.08
27     Y5M  protein stability index             2.83
28    Q20A  protein stability index             3.12
29    E18I  protein stability index             2.84
30    L16Q  protein stability index             4.15
31     S2P  protein stability index             3.01
32     S3R  protein stability index             3.04
33    K17T  protein stability index             3.34
34    D11F  protein stability index                2
35     Q7D  protein stability index              3.9
36    D14A  protein stability index             2.58
37     H4T  protein stability index             2.79
38    R19M  protein stability index             2.12
39    E18N  protein stability index             2.53
40     Q7T  protein stability index             3.66
41     S2N  protein stability index             3.15
42    R19C  protein stability index             2.42
43    D14R  protein stability index              2.7
44    K17Q  protein stability index              4.4
45    K17N  protein stability index             3.53
46    Q20W  protein stability index             1.44
47    K12Q  protein stability index             3.25
48     S2W  protein stability index              2.7
49     S3M  protein stability index             2.38
50    Q13G  protein stability index             2.94
51    D14M  protein stability index             2.97
52    D22W  protein stability index             2.57
53    Q20Y  protein stability index             2.38
54    Q20P  protein stability index             2.76
55    L16S  protein stability index             4.05
56     L6M  protein stability index             3.21
57    K17G  protein stability index             2.96
58     Y5F  protein stability index             2.77
59    K24N  protein stability index             3.46
60    D14V  protein stability index              2.9
61     H4R  protein stability index             2.39
62    R19F  protein stability index             2.14
63    R19I  protein stability index             2.29
64     H4Y  protein stability index             3.21
65     Y5G  protein stability index             3.74
